B1: ANKRD40 (parent)
chain: VCCCELGVNPDQVEKIRKLPNTLL

Variants of: B1
Test: protein stability index of a GFP-peptide fusion (GPS, HEK-293T) (PSI 1-6); higher = more stable;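 further: lentivirally expressed fusions sorted by FACS into six bins by GFP to DsRed ratio, PSI derived from sequencing read proportions per bin multiplied by bin number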
Details: c terminus: a fixed tail appended
Listed next: entries and their corresponding protein stability index.
Provide a numeric answer; units are not to be included.

Study these solved cases before continuing.
variant-key: K18E
protein stability index: 2.03
--
variant-key: P10H
protein stability index: 2
--
variant-key: L24I
protein stability index: 1.95
--
variant-key: P10K
protein stability index: 2.02
--
variant-key: G7T
protein stability index: 2.85

Please look up its protein stability index: P10L 2.17

Please look up its protein stability index: L23V 2.25

Please look up its protein stability index: N21C 2.21

Please look up its protein stability index: T22W 2.01

Please look up its protein stability index: V1L 2.04

Please look up its protein stability index: P10D 2.2

Please look up its protein stability index: V1S 2.4
